// provenance: the Immune Epitope Database (IEDB)

# target: HLA-B*44:02
# assay_summary: IEDB peptide-MHC binding, purified MHC/direct/fluorescence; filed as Kd, often an IC50 or EC50 that approximates it; bounds were set here for any values at or beyond the usual limits of such assays
# condition_description: source organism: Mammarenavirus juninense
property_measured: Kd

Any idea what Kd came out for FRRVAHSSL on HLA-B*44:02? ≥ 20 µM

---

# target: HLA-A*26:01
# assay_summary: IEDB peptide-MHC binding, purified MHC/direct/fluorescence; filed as Kd, often an IC50 or EC50 that approximates it; bounds were set here for any values at or beyond the usual limits of such assays
# condition_description: source organism: Mycobacterium tuberculosis variant bovis
pKd: −log10 of the molar value.
property_measured: pKd

# input sequence: FGVDGEAGF ; wanted: its pKd ≤ 4.70
